# MEASUREMENT_TARGET: ACSS2 (Homo sapiens, UniProt Q9NR19)
# Construct: endogenous fatty acid synthesis activity in the human HCT-15 cancer cell line; endogenous in cells; host or cells: HCT-15
# Sequence (Q9NR19 whole entry): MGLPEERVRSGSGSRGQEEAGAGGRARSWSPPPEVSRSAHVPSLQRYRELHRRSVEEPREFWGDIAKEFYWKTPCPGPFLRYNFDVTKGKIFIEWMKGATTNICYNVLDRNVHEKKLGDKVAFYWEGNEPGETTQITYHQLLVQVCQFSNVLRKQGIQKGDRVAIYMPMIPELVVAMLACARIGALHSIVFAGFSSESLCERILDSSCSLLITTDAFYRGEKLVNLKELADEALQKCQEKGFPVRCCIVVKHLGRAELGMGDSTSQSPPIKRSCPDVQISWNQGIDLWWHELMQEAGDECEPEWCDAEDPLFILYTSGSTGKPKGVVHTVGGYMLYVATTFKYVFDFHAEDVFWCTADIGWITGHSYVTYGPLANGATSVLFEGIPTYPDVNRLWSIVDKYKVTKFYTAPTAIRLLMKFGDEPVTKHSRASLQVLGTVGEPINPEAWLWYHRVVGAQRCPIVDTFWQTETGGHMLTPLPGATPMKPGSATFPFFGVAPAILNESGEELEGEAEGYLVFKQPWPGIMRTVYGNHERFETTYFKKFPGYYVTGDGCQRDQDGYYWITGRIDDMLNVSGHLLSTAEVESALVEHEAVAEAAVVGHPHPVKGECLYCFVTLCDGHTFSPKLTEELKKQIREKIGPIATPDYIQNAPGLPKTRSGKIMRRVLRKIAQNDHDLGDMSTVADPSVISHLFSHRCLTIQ
# ASSAY_TEXT: Cellular assay of 14C acetate incorporation into histones (IC50 ACSS2 cellular histone)
# Type: cell-based
# PROTOCOL_CONDITIONS: HCT-15 cells
QUANTITY_NAME: IC50

COMPOUND | MEASUREMENT_TARGET | MEAS_VALUE
CCn1cnc(NC(=O)c2cc3c(nc2OC)nc(C(O)(c2cccs2)c2cccs2)n3CC)n1 | ACSS2 (Homo sapiens, UniProt Q9NR19) | 0.01 to 1 nM
CCc1c(C(O)(c2ccccc2F)c2ccccc2F)nn2cc(C)c(C(=O)Nc3ncn(CC)n3)cc12 | ACSS2 (Homo sapiens, UniProt Q9NR19) | 1 to 10 nM
CCn1cnc(NC(=O)c2cc3c(nc2OC)nc(C(O)(c2ccccc2)c2ccc(OC(F)F)cc2)n3CC)n1 (single isomer, unassigned) [Compound 72] | ACSS2 (Homo sapiens, UniProt Q9NR19) | 0.01 to 1 nM
CCn1cnc(NC(=O)c2cc3c(nc2C)nc(C(O)(c2ccccc2F)c2ccc(OC(F)F)cc2F)n3CC)n1 (racemic) [Compound 97] | ACSS2 (Homo sapiens, UniProt Q9NR19) | 10 to 100 nM
CCn1cc(NC(=O)c2cc3c(nc2Cl)nc(C(O)(c2ccccc2)c2ccc(OC(F)F)cc2F)n3CC)cn1 (single isomer, unassigned) [Compound 74] | ACSS2 (Homo sapiens, UniProt Q9NR19) | 1 to 10 nM
CCc1c(C(O)(c2ccccc2)c2ccccc2)nc2cc(F)c(C(=O)Nc3cnn(CC)c3)cn12 | ACSS2 (Homo sapiens, UniProt Q9NR19) | 10 to 100 nM
CCc1c(C(O)(c2ccccc2)c2ccccc2)nc2cc(F)c(C(=O)Nc3ncn(CC)n3)cn12 | ACSS2 (Homo sapiens, UniProt Q9NR19) | 0.01 to 1 nM
CCn1c(C(O)(c2ccccc2)c2ccccc2)nc2nc(OC)c(C(=O)Nc3cnn(CCOC)c3)cc21 | ACSS2 (Homo sapiens, UniProt Q9NR19) | 10 to 100 nM
CCc1c(C(O)(c2ccccc2)c2ccccc2)nc2cc(OC)c(C(=O)Nc3ncn(CC)n3)cn12 | ACSS2 (Homo sapiens, UniProt Q9NR19) | 0.01 to 1 nM
CCn1cnc(NC(=O)c2cc3c(nc2Cl)nc(C(O)(c2ccccc2)c2ccccc2)n3CC)c1 | ACSS2 (Homo sapiens, UniProt Q9NR19) | 0.01 to 1 nM
CCn1c(C(O)(c2ccccc2)c2ccccc2)nc2nc(OC)c(C(=O)Nc3ncn(CCOC)n3)cc21 | ACSS2 (Homo sapiens, UniProt Q9NR19) | 10 to 100 nM
CCc1c(C(O)(c2ccccc2)c2ccccn2)nc2cc(OC)c(C(=O)Nc3ncn(CC)n3)cn12 (single isomer, unassigned) [Compound 18] | ACSS2 (Homo sapiens, UniProt Q9NR19) | 100 to 10000 nM
CCc1coc(NC(=O)c2cc3c(nc2OC)nc(C(O)(c2ccccc2)c2ccccc2)n3CC)n1 | ACSS2 (Homo sapiens, UniProt Q9NR19) | 0.01 to 1 nM
CCn1c(C(O)(c2ccccc2)c2ccccn2)nc2nc(OC)c(C(=O)Nc3ncn(CCOC)n3)cc21 (racemic) | ACSS2 (Homo sapiens, UniProt Q9NR19) | 1 to 10 nM
CCn1cc(NC(=O)c2cc3c(nc2OC)nc(C(O)(c2ccccc2)c2ccc(OC(F)F)cc2)n3CC)cn1 (racemic) | ACSS2 (Homo sapiens, UniProt Q9NR19) | 10 to 100 nM
CCn1cnc(NC(=O)c2cnc3nc(C(O)(c4ccccc4F)c4ccccc4F)n(CC)c3c2)n1 | ACSS2 (Homo sapiens, UniProt Q9NR19) | 1 to 10 nM
CCn1cnc(NC(=O)c2cc3c(nc2OC)nc(C(O)(c2ccccc2)c2ccccc2)n3CCO)n1 | ACSS2 (Homo sapiens, UniProt Q9NR19) | 1 to 10 nM
CCc1c(C(O)(c2ccccc2)c2ccccc2)nn2cc(OC)c(C(=O)Nc3ncn(CC)n3)cc12 | ACSS2 (Homo sapiens, UniProt Q9NR19) | 0.01 to 1 nM
CCn1cnc(NC(=O)c2cc3c(nc2OC)nc(C(O)(c2ccccc2)c2ccccc2OC)n3CC)n1 (racemic) | ACSS2 (Homo sapiens, UniProt Q9NR19) | 10 to 100 nM
CCn1cnc(NC(=O)c2cc3c(nc2OC)nc(C(O)(c2ccccc2)c2cccnn2)n3CC)n1 (racemic) | ACSS2 (Homo sapiens, UniProt Q9NR19) | 1 to 10 nM
CCc1c(C(O)(c2ccccc2F)c2ccccc2F)nn2cc(Cl)c(C(=O)Nc3cnn(CC)c3)cc12 | ACSS2 (Homo sapiens, UniProt Q9NR19) | 1 to 10 nM
CCn1cnc(NC(=O)c2cc3c(nc2OC)nc(C(O)(c2ccccc2)c2ncccn2)n3CC)n1 (racemic) | ACSS2 (Homo sapiens, UniProt Q9NR19) | 1 to 10 nM
CCn1cnc(NC(=O)c2cc3c(nc2OC)nc(C(O)(c2ccccc2F)c2ccc(OC(F)F)cc2F)n3CC)n1 (single isomer, unassigned) [Compound 71] | ACSS2 (Homo sapiens, UniProt Q9NR19) | 0.01 to 1 nM
CCn1cnc(NC(=O)c2cc3c(nc2OC)nc(C(O)(c2ccccc2)c2cccs2)n3CC)n1 (racemic) | ACSS2 (Homo sapiens, UniProt Q9NR19) | 0.01 to 1 nM
CCc1c(C(O)(c2ccccc2F)c2ccccc2F)nc2cc(OC)c(C(=O)Nc3ncn(CC)n3)cn12 | ACSS2 (Homo sapiens, UniProt Q9NR19) | 0.01 to 1 nM
